target or system: T1, H-2Kd (mouse)
T1 chain 1: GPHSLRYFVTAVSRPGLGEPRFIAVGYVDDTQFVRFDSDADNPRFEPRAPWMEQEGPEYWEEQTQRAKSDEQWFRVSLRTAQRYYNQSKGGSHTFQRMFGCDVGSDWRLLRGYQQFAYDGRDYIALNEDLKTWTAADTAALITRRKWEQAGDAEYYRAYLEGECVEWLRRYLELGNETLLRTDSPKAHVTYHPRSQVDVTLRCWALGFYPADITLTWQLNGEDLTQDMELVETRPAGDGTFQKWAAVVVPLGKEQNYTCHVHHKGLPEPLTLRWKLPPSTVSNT
T1 chain 2: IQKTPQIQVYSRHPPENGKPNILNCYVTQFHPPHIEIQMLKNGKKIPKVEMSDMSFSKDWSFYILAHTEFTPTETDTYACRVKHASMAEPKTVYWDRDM
experiment description: competition
run parameters: modification not given
parameter measured: pIC50
In textbook form, pIC50 equals minus log to base ten of the concentration in mol/L.

Consider the reported pIC50 for these binders:
- binder: "YYVSRDTLL [F078.06]"
  pIC50: 7.00
- binder: "AYAVAKAAI [1114.09]"
  pIC50: 7.38
- binder: "AYAEAKAAI [1114.03]"
  pIC50: 7.30
- binder: "SYVPSAEQIL [1081.06]"
  pIC50: 6.55

# next binder below
Ask: Report pIC50 for HYYVSRDTL [F078.05] please.
Result: 7.37
